Assay: Cell Viability - LYMP2-020 (AID 986);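 note: cells exposed to compound for 24 h at 37 °C; nearly all actives have a fitted effect of over 55% in size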
Settings: series mostly up to 92.2 µM
Inconclusive results are not listed. Calls of active or inactive are those of the source. Calls come from the whole dose curve; as a rule, active = well fitted cell-killing curve with a large enough effect; inconclusive = small, poorly fitted or top-dose-only effect; inactive = flat fitted curve, though single readings scatter.
Bench note: report the call from active, inactive

[
  {
    "molecule": "Nc1ccccc1C(=O)OCCc1ccccc1",
    "assigned_label": "inactive"
  }
]

INPUT: Recorded call for CC(C)CC(C)Nc1ccc(Nc2ccccc2)cc1 (stereo not drawn) ?
OUTPUT: active

INPUT: Recorded call for O=[N+]([O-])c1cc(C(F)(F)F)cc([N+](=O)[O-])c1Cl ?
OUTPUT: active

INPUT: Recorded call for CCCCCCCCn1sccc1=O ?
OUTPUT: active

INPUT: Recorded call for C[C@@H]1CC[C@@]2(OC1)O[C@H]1[C@@H](O)[C@H]3[C@@H]4CC[C@H]5C[C@@H](O[C@@H]6O[C@H](CO)[C@H](O[C@@H]7O[C@H](CO)[C@@H](O)[C@H](O[C@@H]8OC[C@@H](O)[C@H](O)[C@H]8O)[C@H]7O[C@@H]7O[C@H](CO)[C@@H](O)[C@H](O[C@@H]8O[C@H](CO)[C@@H](O)[C@H](O)[C@H]8O)[C@H]7O)[C@H](O)[C@H]6O)[C@H](O)C[C@]5(C)[C@H]4CC[C@]3(C)[C@H]1[C@@H]2C ?
OUTPUT: active

INPUT: Recorded call for Clc1ccc(C(c2ccc(Cl)cc2)C(Cl)Cl)cc1 ?
OUTPUT: inactive

INPUT: Recorded call for N#CC(Cl)Cl ?
OUTPUT: active

INPUT: Recorded call for ClC1=C(Cl)C(Cl)(Cl)C(Cl)=C1Cl ?
OUTPUT: active

====

Assay: NFAT Signaling Pathway (AID 444);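 note: carbachol stimulus at about its EC50 of 1 µM final; % is set by controls: 0 for no effect and ±100 for the full control effect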
Conditions: Jurkat NFAT-bla M1, carbachol, beta-lactamase ratio, 5 h; at 17.2 µM (top of the series) unless noted
Results filed as inconclusive are left out. Calls of active or inactive are those of the source. Calls follow the shape of the dose curve; as a rule, active = well fitted curve in either direction with a large enough effect (not every such curve was filed as active); inconclusive = small, poorly fitted or top-dose-only effect, or another doubt; inactive = flat fitted curve, though single readings scatter.
Bench note: report the call from T (active), F (inactive)

Record excerpt, results attached:
[
  {
    "compound": "COC(=O)C(O)(c1c[nH]c2ccccc12)C(F)(F)F (configuration not stated)",
    "assigned_label": "F"
  },
  {
    "compound": "Ic1ccccc1CN[C@@H]1C2CCN(CC2)[C@H]1C(c1ccccc1)c1ccccc1",
    "assigned_label": "F"
  }
]

INPUT: Recorded call for C[C@H](N)c1cccc(Cl)c1Cl ?
OUTPUT: F

INPUT: Recorded call for O=C1c2ccccc2C(=O)N1Cc1nc2ccccc2c(=O)n1-c1cccnc1 ?
OUTPUT: F

INPUT: Recorded call for CCCCCCn1c(O)c(C(C)=NC)c(=O)[nH]c1=O ?
OUTPUT: F

====

In this section, each of the compounds is paired with its reported Potency.
Biological target: Glucocorticoid receptor (Homo sapiens) (UniProt P04150)
Sequence (P04150 whole entry, looked up): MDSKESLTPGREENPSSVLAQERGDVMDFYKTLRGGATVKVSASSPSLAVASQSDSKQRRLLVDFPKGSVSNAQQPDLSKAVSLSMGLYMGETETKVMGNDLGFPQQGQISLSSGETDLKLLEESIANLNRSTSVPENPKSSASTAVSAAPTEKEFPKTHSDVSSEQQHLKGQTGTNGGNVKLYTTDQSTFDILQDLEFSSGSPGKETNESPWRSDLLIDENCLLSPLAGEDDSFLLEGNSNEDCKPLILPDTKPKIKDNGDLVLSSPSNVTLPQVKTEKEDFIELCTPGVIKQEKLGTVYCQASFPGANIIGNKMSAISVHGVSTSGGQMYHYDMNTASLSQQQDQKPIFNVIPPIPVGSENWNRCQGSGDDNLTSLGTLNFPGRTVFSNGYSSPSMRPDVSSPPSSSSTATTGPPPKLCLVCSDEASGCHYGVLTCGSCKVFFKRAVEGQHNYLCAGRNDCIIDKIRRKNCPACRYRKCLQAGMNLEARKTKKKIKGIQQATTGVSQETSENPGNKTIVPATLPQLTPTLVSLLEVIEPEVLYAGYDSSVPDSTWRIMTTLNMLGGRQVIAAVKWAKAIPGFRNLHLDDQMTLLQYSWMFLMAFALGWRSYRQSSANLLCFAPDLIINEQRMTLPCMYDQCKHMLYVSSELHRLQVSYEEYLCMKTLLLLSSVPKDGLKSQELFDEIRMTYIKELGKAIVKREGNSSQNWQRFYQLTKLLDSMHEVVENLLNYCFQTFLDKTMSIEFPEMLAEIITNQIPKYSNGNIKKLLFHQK
Experiment: GR-EFC Redistribution (AID 451); note: potency is the fitted concentration of half-maximal effect
Conditions: CHO-K1 GR-EFC translocation, beta-gal luminescence, 2 h
Activity calls are given as the source filed them. The call rests on the fitted dose curve.

Below: 5 compounds and their reported Potency.
[
  {
    "compound": "O=c1ccc2cc(O[C@@H]3O[C@@H](CO)[C@@H](O)[C@@H](O)[C@H]3O)c(O)cc2o1",
    "target_under_test": "Glucocorticoid receptor (Homo sapiens) (UniProt P04150)",
    "Potency": "> 46 µM (inactive)"
  },
  {
    "compound": "O=C1C[C@H]2OCCC=C3CN4CC[C@@]56c7ccccc7N1[C@@H]5[C@H]2[C@H]3C[C@@H]46",
    "target_under_test": "Glucocorticoid receptor (Homo sapiens) (UniProt P04150)",
    "Potency": "> 46 µM (inactive)"
  },
  {
    "compound": "COc1ccc2c(c1)[C@]13CCCC[C@@H]1[C@H](C2)N(C)CC3",
    "target_under_test": "Glucocorticoid receptor (Homo sapiens) (UniProt P04150)",
    "Potency": "> 46 µM (inactive)"
  },
  {
    "compound": "CO[C@@H](C)[C@](O)(C(=O)OC1=CCN2CC[C@H](O)[C@H]12)C(C)C",
    "target_under_test": "Glucocorticoid receptor (Homo sapiens) (UniProt P04150)",
    "Potency": "> 46 µM (inactive)"
  },
  {
    "compound": "CC[C@H](CO)NC(=O)[C@@H]1C=C2c3cccc4[nH]cc(c34)C[C@@H]2N(C)C1",
    "target_under_test": "Glucocorticoid receptor (Homo sapiens) (UniProt P04150)",
    "Potency": "> 46 µM (inactive)"
  }
]

INPUT: Query (compound): C[C@H]1CCCC=CC2C[C@H](O)C[C@@H]2[C@H](O)/C=C\C(=O)O1 (stereo partly specified) ; field requested: Potency
OUTPUT: > 46 µM (inactive)

INPUT: Query (compound): CC1=C2[C@@H]3OC(=O)[C@H](C)[C@H]3CC[C@@]2(C)C=CC1=O ; field requested: Potency
OUTPUT: > 46 µM (inactive)

INPUT: Query (compound): CC(C)C[C@H]1C(=O)N2CCC[C@@H]2[C@]2(O)O[C@](NC(=O)[C@H]3C=C4c5cccc6[nH]cc(c56)C[C@H]4N(C)C3)(C(C)C)C(=O)N12 ; field requested: Potency
OUTPUT: > 46 µM (inactive)

====

In this section, each of the compounds is paired with its reported max response.
Molecular target: Peroxisome proliferator-activated receptor alpha (Homo sapiens)
Assay: qHTS assay for small molecule agonists of the peroxisome proliferator-activated receptor alpha (PPARalpha) signaling pathway (AID 651778); note: % of control where 0% means no effect
Conditions: PathHunter PPARalpha complementation, chemiluminescence, 6 h; hits give high values
Enter your answer as a number in %; do not include the unit.

[
  {
    "compound": "CCCCCCCCCCCC#N",
    "readout_label": "max response",
    "unit_of_measure": "%",
    "recorded_number": -0.162
  },
  {
    "compound": "CC(C)COP(=O)(OCC(C)C)OCC(C)C",
    "readout_label": "max response",
    "unit_of_measure": "%",
    "recorded_number": -1.01
  },
  {
    "compound": "CNC(=O)Oc1cccc2c1OC(C)(C)C2O (stereo not drawn)",
    "readout_label": "max response",
    "unit_of_measure": "%",
    "recorded_number": -1.14
  },
  {
    "compound": "CC(c1ccc(O)cc1)(c1ccc(O)cc1)c1ccc(O)cc1",
    "readout_label": "max response",
    "unit_of_measure": "%",
    "recorded_number": -5.19
  },
  {
    "compound": "CC(C)(C)OOC(C)(C)c1ccc(C(C)(C)OOC(C)(C)C)cc1",
    "readout_label": "max response",
    "unit_of_measure": "%",
    "recorded_number": 0.719
  },
  {
    "compound": "COc1ccc(/C(=C/C(=O)N2CCOCC2)c2ccc(Cl)cc2)cc1OC",
    "readout_label": "max response",
    "unit_of_measure": "%",
    "recorded_number": 0.316
  }
]

INPUT: Query (compound): CCOc1cc(C(C)(C)C)ccc1C1COC(c2c(F)cccc2F)=N1 (stereo not drawn) ; field requested: max response
OUTPUT: 6.72

INPUT: Query (compound): CCOS(=O)(=O)OCC ; field requested: max response
OUTPUT: -1.06

INPUT: Query (compound): CCSCc1ccccc1OC(=O)NC ; field requested: max response
OUTPUT: -0.372

INPUT: Query (compound): O=C1NCCN1Cc1ccc(Cl)nc1 ; field requested: max response
OUTPUT: -0.72

INPUT: Query (compound): CC(C)N(C(=O)CCl)c1ccccc1 ; field requested: max response
OUTPUT: -1.12

INPUT: Query (compound): Cc1cc(C)nc(NC(=O)NS(=O)(=O)c2ccccc2C(=O)OC2COC2)n1 ; field requested: max response
OUTPUT: -2.96

INPUT: Query (compound): ClCc1ccccc1Cl ; field requested: max response
OUTPUT: 1.31

====

Test system: CP305
Test: qHTS profiling for inhibitors of Plasmodium falciparum proliferation (AID 504749); note: nearly all actives have a fitted effect of over 60% in size
Details: P. falciparum in erythrocytes, SYBR Green DNA, 72 h; series mostly up to 28.7 µM
Inconclusive results are not listed. Calls of active or inactive are those of the source. The call rests on the fitted dose curve; in most records, active means well fitted inhibition curve with a large enough effect; inconclusive means small, poorly fitted or top-dose-only effect; inactive means flat fitted curve, though single readings scatter.
Bench note: report the call from active, inactive

[
  {
    "compound": "CC1OC(O[C@H]2C[C@@H](O)[C@]3(CO)[C@@H]4C(CC[C@]3(O)C2)[C@@]2(O)CC[C@H](C3=CC(=O)OC3)[C@@]2(C)C[C@H]4O)C(O)C(O)C1O (stereo partly specified)",
    "assigned_label": "inactive"
  }
]

Please turn your attention to the following entry.
INPUT: Recorded call for CCCCCc1cc(O)c2c(c1)OC(C)(C)C1CC=C(C)CC21 (stereo unspecified) ?
OUTPUT: active

====

Assay: NFAT Signaling Pathway (AID 444);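 note: carbachol stimulus at about its EC50 of 1 µM final; % is set by controls: 0 for no effect and ±100 for the full control effect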
Conditions: Jurkat NFAT-bla M1, carbachol, beta-lactamase ratio, 5 h; at 17.2 µM (top of the series) unless noted
Method: NCGC Assay Overview: The nuclear factor of activated T cells (NFAT) family of transcription factors has been found primarily in most immune system cells and some other non-immune cells. NFAT plays the immunomodulatory role, primarily in T-cell activation and differentiation. […] NCGC Assay Protocol Summary: The cells were prepared in RPMI 1640 medium containing 0.1% dialyzed FBS and 25 mM HEPES at 1.6 x 10^6cell/ml. […] The %Activity was determined from the ratio of 460nm/530nm. […]
Results filed as inconclusive are left out. Active and inactive are the calls of the source. Calls come from the whole dose curve; as a rule, active = well fitted curve in either direction with a large enough effect (not every such curve was filed as active); inconclusive = small, poorly fitted or top-dose-only effect, or another doubt; inactive = flat fitted curve, though single readings scatter.
readout_label: activity change, negative = inhibition

[
  {
    "compound": "CC1(C)CC(n2[nH]c(=O)c3c2NC(=O)CSC3c2ccccc2)CCO1 (configuration not stated)",
    "activity change, negative = inhibition": "-1.52% (inactive)"
  },
  {
    "compound": "O=c1[nH]c2ccccc2c(=O)n1-c1cccc(Cl)c1",
    "activity change, negative = inhibition": "-3.58% (inactive)"
  },
  {
    "compound": "O=c1[nH]c(=O)n(CCc2ccccc2)c(O)c1C=NCCCn1ccnc1",
    "activity change, negative = inhibition": "-27.5% (inactive)"
  },
  {
    "compound": "CC1=C(C(=O)OC(C)C)[C@]2(C(=O)N(CC(N)=O)c3ccccc32)C(C#N)=C(N)O1",
    "activity change, negative = inhibition": "-13.4% (inactive)"
  },
  {
    "compound": "CCN(CC)CCCC(C)N=C(c1ccccc1)c1c(O)n(C)c(=O)n(C)c1=O (configuration not stated)",
    "activity change, negative = inhibition": "-29.5% (inactive)"
  }
]

INPUT: Query (compound): O[C@@H]1CCCC[C@H]1N1CCC(c2ccccc2)CC1 ; field requested: activity change, negative = inhibition
OUTPUT: -6.89% [at 38 µM] (inactive)

INPUT: Query (compound): CCCCC1(CN2CCCC2=O)C(=O)NC(=O)NC1=O ; field requested: activity change, negative = inhibition
OUTPUT: -2.56% (inactive)

INPUT: Query (compound): CNCCc1nc(N)n[nH]1 ; field requested: activity change, negative = inhibition
OUTPUT: -10.7% (inactive)

INPUT: Query (compound): O=[N+]([O-])c1ccc(O[C@H]2O[C@@H](CO)[C@@H](O)[C@@H](O)[C@@H]2F)c([N+](=O)[O-])c1 ; field requested: activity change, negative = inhibition
OUTPUT: 14.6% [at 38 µM] (inactive)

INPUT: Query (compound): O=c1[nH]c(O)c(C=NC2CCN(Cc3ccccc3)CC2)c(=O)[nH]1 ; field requested: activity change, negative = inhibition
OUTPUT: -19.6% (inactive)

INPUT: Query (compound): CC[C@H](CO)NC(=O)[C@@H]1C=C2c3cccc4[nH]cc(c34)C[C@@H]2N(C)C1 ; field requested: activity change, negative = inhibition
OUTPUT: -0.886% [at 38 µM] (inactive)

INPUT: Query (compound): CCOC(=O)c1cncn1[C@@H](C)c1ccccc1 ; field requested: activity change, negative = inhibition
OUTPUT: -21.8% (inactive)
